Property: melting point; scope: individual molecules

Previously resolved entries follow.
Molecule	Test result
Cc1cc(C2(c3ccc(OC(F)F)cc3)N=C(N)N(C)C2=O)ccc1F (stereo not shown)	70 °C
Cc1ccccc1C1(c2ccc(OC(F)F)cc2)N=C(N)N(C)C1=O (stereo not shown)	85 to 90 °C
CN1C(=O)C(c2ccc(OC(F)F)cc2)(c2cccc(OCCCF)c2)N=C1N (stereo not shown)	161 to 162 °C
C=CCCC(F)c1cccc(C2(c3ccc(OC(F)F)cc3)N=C(N)N(C)C2=O)c1 (stereo not shown)	50 to 55 °C
C=CCCC(F)c1cc(C2(c3ccc(OC(F)F)cc3)N=C(N)N(C)C2=O)ccc1F (stereo not shown)	50 to 55 °C
COc1ccc(C2(c3ccc(OC(F)F)cc3)N=C(N)N(C)C2=O)cc1C#N (stereo not shown)	104 to 105 °C
CN1C(=O)C(c2ccc(OC(F)F)cc2)(c2cccc(CCCCC#N)c2)N=C1N (stereo not shown)	65 °C
CN1C(=O)C(c2ccc(OC(F)F)cc2)(c2ccc(F)c(CF)c2)N=C1N (stereo not shown)	70 to 73 °C

Given item CN1C(=O)C(c2ccc(OC(F)F)cc2)(c2ccc(F)c(CCCC#N)c2)N=C1N (stereo not shown) , the value recorded as its melting point is 65 to 70 °C

Given item C=CCC(F)c1cccc(C2(c3ccc(OC(F)F)cc3)N=C(N)N(C)C2=O)c1 (stereo not shown) , the value recorded as its melting point is 49 to 51 °C
